We begin with a simple list: items and their reported pIC50.
system: H1650 cells; assay: CellTiterGlo (CTG) cell viability, 3D, 120 h, H1650 (Example 8); assay type: cell-based, human; conditions: Homo sapiens, NCI-H1650, H1650 3D, mean of n1 and n2, read-out: H1650 3D CTG IC50 Mean of n1 and n2
Quick note: pIC50 values are minus log10 of concentrations in mol/L.

Completed entries (count: 2):
[[record]]
smiles_string = "COCCCNCCOC12CC3(C)CC(C)(CC(Cn4ncc(-c5ccc(N(C)c6cc(C)c(Nc7nc8ccccc8s7)nn6)nc5C(=O)O)c4C)(C3)C1)C2"
recorded_result = 9.28

[[record]]
smiles_string = "Cc1c(Nc2nc3ccccc3s2)nnc2c1CCCN2c1ccc(-c2cnn(C[C@]34C[C@]5(C)C[C@](C)(C3)C[C@@](OCCN(C)CCO)(C5)C4)c2C)c(C(=O)O)n1"
recorded_result = 9.60


Attention now shifts to the item below.
**Q:** Using the record for Cc1c(Nc2nc3ccccc3s2)nnc2c1CCCN2c1nc(C(=O)O)c(CCCOc2ccc(C#CCN3CCCCC3)cc2F)s1 , report its pIC50.
**A:** 8.58
